Data credit: ChEMBL document CHEMBL4020849

// reported bioavailability for each item listed
assayName: Oral bioavailability in Sprague-Dawley rat plasma at 2 mg/kg administered as gastric bolus dose by LC-MS/MS analysis
Assay type: ADME, organism-based

{"molecule": "CNS(=O)(=O)c1ccc(OCC(F)(F)F)c(Nc2cc(Nc3ccc(Cl)cc3)ncn2)c1", "bioavailability (%)": 37}
{"molecule": "CNS(=O)(=O)c1ccc(OCC(F)(F)F)c(Nc2cc(Nc3ccc(Cl)cn3)ncn2)c1", "bioavailability (%)": 99}
{"molecule": "CNS(=O)(=O)c1ccc(OC)c(Nc2cc(Nc3ccc(Cl)cn3)ncn2)c1", "bioavailability (%)": 75}
{"molecule": "CNS(=O)(=O)c1ccc(SC)c(Nc2cc(Nc3ccc(Cl)cc3)ncn2)c1", "bioavailability (%)": 52}

###

// reported AUC/dose for each item listed
System: Rattus norvegicus
assayName: Dose normalized AUC in Sprague-Dawley rat plasma at 2 mg/kg, po administered as gastric bolus dose by LC-MS/MS analysis
Format: ADME, organism-based
particulars: in vivo
measureName: AUC/dose (kg·h/L)

{"molecule": "CNS(=O)(=O)c1ccc(OC)c(Nc2cc(Nc3ccc(Cl)cc3)ncn2)c1", "systemName": "Rattus norvegicus", "observed": 0.69}
{"molecule": "CNS(=O)(=O)c1ccc(N(C)C)c(Nc2cc(Nc3ccc(Cl)cc3)ncn2)c1", "systemName": "Rattus norvegicus", "observed": 0.096}
{"molecule": "CNS(=O)(=O)c1ccc(Cl)c(Nc2cc(Nc3ccc(Cl)cc3)ncn2)c1", "systemName": "Rattus norvegicus", "observed": 0.7}
{"molecule": "CNS(=O)(=O)c1cccc(Nc2cc(Nc3cccc(Br)c3)ncn2)c1", "systemName": "Rattus norvegicus", "observed": 0.1}
{"molecule": "CNS(=O)(=O)c1cccc(Nc2cc(Nc3ccc(Cl)cc3)ncn2)c1", "systemName": "Rattus norvegicus", "observed": 0.71}
